# tgt: T1, CD3 epsilon homodimer protein (UniProt P07766 23-126)
# T1 construct: also called CD3 (CD3 epsilon)
# test description: SPR, antibody over immobilised CD3e homodimer;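 further: SPR at 25 °C with CD3 epsilon homodimer amine-coupled to a CM4 sensor chip and antibody flowed over as analyte in HBS-EP+ running buffer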
observation type: KD ratio to GLS3000
Reply with the value as a number alone.

binder	KD ratio to GLS3000
CE115HA000/GLS3000 F55S (antibody, IgG1, name in Kabat numbering, V domains shown, one-arm IgG1) VH: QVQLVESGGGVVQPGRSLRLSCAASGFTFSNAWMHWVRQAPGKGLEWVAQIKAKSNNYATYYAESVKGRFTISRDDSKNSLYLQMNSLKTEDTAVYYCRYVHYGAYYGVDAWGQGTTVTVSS VL: DIVMTQSPLSLPVTPGEPASISCRSSQSLVHSNRNTYLHWYQQKPGQAPRLLIYKVSNRSSGVPDRFSGSGSGTDFTLKISRVEAEDVGVYYCGQGTQVPYTFGQGTKLEIK	1.15
CE115HA000/GLS3000 F55A (antibody, IgG1, name in Kabat numbering, V domains shown, one-arm IgG1) VH: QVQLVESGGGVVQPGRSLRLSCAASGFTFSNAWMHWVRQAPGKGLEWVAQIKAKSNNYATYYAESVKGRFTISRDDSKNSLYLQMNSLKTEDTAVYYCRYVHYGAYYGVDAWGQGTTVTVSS VL: DIVMTQSPLSLPVTPGEPASISCRSSQSLVHSNRNTYLHWYQQKPGQAPRLLIYKVSNRASGVPDRFSGSGSGTDFTLKISRVEAEDVGVYYCGQGTQVPYTFGQGTKLEIK	1.16
CE115HA000/GLS3000 S27eE (antibody, IgG1, name in Kabat numbering, V domains shown, one-arm IgG1) VH: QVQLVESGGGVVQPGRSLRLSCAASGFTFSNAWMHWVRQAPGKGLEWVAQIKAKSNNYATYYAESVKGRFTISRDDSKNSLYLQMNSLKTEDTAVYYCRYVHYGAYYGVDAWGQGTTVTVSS VL: DIVMTQSPLSLPVTPGEPASISCRSSQSLVHENRNTYLHWYQQKPGQAPRLLIYKVSNRFSGVPDRFSGSGSGTDFTLKISRVEAEDVGVYYCGQGTQVPYTFGQGTKLEIK	1.04
CE115HA000/GLS3000 N28I (antibody, IgG1, name in Kabat numbering, V domains shown, one-arm IgG1) VH: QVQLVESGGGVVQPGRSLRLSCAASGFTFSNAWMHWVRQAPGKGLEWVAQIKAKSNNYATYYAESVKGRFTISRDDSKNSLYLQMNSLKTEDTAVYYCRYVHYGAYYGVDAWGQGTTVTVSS VL: DIVMTQSPLSLPVTPGEPASISCRSSQSLVHSIRNTYLHWYQQKPGQAPRLLIYKVSNRFSGVPDRFSGSGSGTDFTLKISRVEAEDVGVYYCGQGTQVPYTFGQGTKLEIK	2.81

Please find the next binder below.
// KD ratio to GLS3000 lookup, key: CE115HA000/GLS3000 F55Q (antibody, IgG1, name in Kabat numbering, V domains shown, one-arm IgG1) VH: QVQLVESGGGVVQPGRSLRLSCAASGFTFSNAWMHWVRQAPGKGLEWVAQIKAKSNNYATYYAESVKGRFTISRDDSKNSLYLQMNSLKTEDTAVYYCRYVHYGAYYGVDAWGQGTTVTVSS VL: DIVMTQSPLSLPVTPGEPASISCRSSQSLVHSNRNTYLHWYQQKPGQAPRLLIYKVSNRQSGVPDRFSGSGSGTDFTLKISRVEAEDVGVYYCGQGTQVPYTFGQGTKLEIK
1.09
